pIC50: −log10 of the molar value.
Here's what we have: pIC50 numbers for GST tagged PIP4KtypeIIB (Homo sapiens, UniProt P78356).

COMPOUND	pIC50
CN(C)C(=O)c1cnc2[nH]cc(-c3cncc(-c4ccc(N5CCCC5=O)cc4)c3)c2c1	6.00 to 7.00
O=C1CCCN1c1ccc(-c2cncc(-n3cnc4ccccc43)c2)cc1	6.00 to 7.00
Cc1cc2nc(CNC(=O)c3cc4c(-c5cncc(-c6ccc(N7CCCC7=O)cc6)c5)ccnc4[nH]3)[nH]c2cc1C	6.00 to 7.00

Q) Return pIC50 measured with GST tagged PIP4KtypeIIB (Homo sapiens, UniProt P78356) given this compound: Cc1ccnnc1-c1ccc(-c2cncc(-c3ccnc4c3cc3n4CCN(C)C3=O)c2)cc1
Sequence (P78356 whole entry): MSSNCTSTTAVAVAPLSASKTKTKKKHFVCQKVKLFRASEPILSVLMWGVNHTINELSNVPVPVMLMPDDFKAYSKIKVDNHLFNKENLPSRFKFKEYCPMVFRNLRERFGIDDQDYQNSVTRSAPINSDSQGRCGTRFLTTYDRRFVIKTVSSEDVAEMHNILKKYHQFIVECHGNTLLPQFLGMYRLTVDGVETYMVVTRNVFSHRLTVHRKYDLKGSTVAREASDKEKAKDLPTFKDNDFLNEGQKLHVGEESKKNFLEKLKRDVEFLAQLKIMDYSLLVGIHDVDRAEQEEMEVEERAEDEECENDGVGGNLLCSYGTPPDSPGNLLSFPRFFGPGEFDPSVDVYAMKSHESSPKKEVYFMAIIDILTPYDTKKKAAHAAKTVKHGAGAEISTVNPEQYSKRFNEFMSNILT
A) 8.00 to 9.00

Q) Return pIC50 measured with GST tagged PIP4KtypeIIB (Homo sapiens, UniProt P78356) given this compound: CC(C)c1cc(=O)n2ncc(-c3cncc(-c4ccc(N5CCCC5=O)cc4)c3)c2[nH]1
A) 5.60 to 6.00

Q) Return pIC50 measured with GST tagged PIP4KtypeIIB (Homo sapiens, UniProt P78356) given this compound: CN(C)C(=O)c1ccc(-c2cc(-c3ccnc(CNC(=O)c4cccc(NC(=O)OC(C)(C)C)c4)c3)cnc2N)nc1
A) < 5.30

Q) Return pIC50 measured with GST tagged PIP4KtypeIIB (Homo sapiens, UniProt P78356) given this compound: Cc1cnc2[nH]ccc2c1-c1cncc(-c2ccc(N3CCCC3=O)cc2)c1
A) 6.00 to 7.00

Q) Return pIC50 measured with GST tagged PIP4KtypeIIB (Homo sapiens, UniProt P78356) given this compound: Cc1c(-c2ccc(N3CCCC3=O)cc2)cncc1-c1ccnc2[nH]c(C(=O)N(C)C)cc12
A) 6.00 to 7.00

Q) Return pIC50 measured with GST tagged PIP4KtypeIIB (Homo sapiens, UniProt P78356) given this compound: Cn1cc(-c2cncc(-c3ccc(N4CCCC4=O)cc3)c2)c2cccnc21
A) 6.00 to 7.00

Q) Return pIC50 measured with GST tagged PIP4KtypeIIB (Homo sapiens, UniProt P78356) given this compound: CC(O)c1cnc2[nH]c(C3CC3)c(-c3cncc(-c4ccc(N5CCCC5=O)cc4)c3)c2c1 (stereo not drawn)
A) 7.00 to 8.00

Q) Return pIC50 measured with GST tagged PIP4KtypeIIB (Homo sapiens, UniProt P78356) given this compound: C[C@H]1CC(=O)N(c2ccc(-c3cncc(-c4ccnc5c4cc4n5CCN(C)C4=O)c3)cc2)C1
A) 7.00 to 8.00

Q) Return pIC50 measured with GST tagged PIP4KtypeIIB (Homo sapiens, UniProt P78356) given this compound: CC(=O)N(C)c1cc(-c2cncc(-c3ccc(N4CCCC4=O)cc3)c2)ccn1
A) < 5.30

---

pIC50: −log10 of the molar value.
Here's what we have: pIC50 numbers for PIP4K2A (full length protein, SignalChem) (Homo sapiens).

Record excerpt, results attached:
SMILES REPRESENTATION	TARGET ENTITY	MEASUREMENT
CN(C[C@H]1CC[C@H](N)CC1)C(=O)c1ccc(-c2cncc(-c3ccncc3)c2)cc1	PIP4K2A (full length protein, SignalChem) (Homo sapiens)	> 5.30
CN(C)C(=O)c1ccc(-c2cc(-c3cc(Nc4cccc(NC(=O)c5cccc(N)c5)c4)ncn3)cnc2N)nc1	PIP4K2A (full length protein, SignalChem) (Homo sapiens)	6.00 to 7.00
CN(C)C(=O)c1ccc(-c2cc(-c3cnc4c(c3)c(-c3cncnc3)cn4C)cnc2N)nc1	PIP4K2A (full length protein, SignalChem) (Homo sapiens)	6.00 to 7.00
CNC(=O)c1cnc2[nH]cc(-c3cncc(-c4ccc(N5CCCC5=O)cc4)c3)c2c1	PIP4K2A (full length protein, SignalChem) (Homo sapiens)	7.00 to 8.30
COC(=O)c1cc2c(-c3cncc(-c4ccc(N5CCCC5=O)cc4C)c3)ccnc2[nH]1	PIP4K2A (full length protein, SignalChem) (Homo sapiens)	7.00 to 8.30

Q) Query (compound): C[C@@H]1C[C@@H](C(C)(C)O)N(C(=O)c2cc3c(-c4cncc(-c5ccc(N6CCCC6=O)cc5)c4)ccnc3[nH]2)C1 ; field requested: pIC50
A) 6.00 to 7.00

Q) Query (compound): Cc1c(-c2ccc(N3CCCC3=O)cc2)cncc1-c1ccnc2[nH]c(C(=O)N(C)C)cc12 ; field requested: pIC50
A) 7.00 to 8.30

Q) Query (compound): CN1CCn2c(cc3c(-c4cncc(-c5ccc(-c6nncn6CC6CC6)cc5)c4)ccnc32)C1=O ; field requested: pIC50
A) 5.60 to 6.00
